biological target: Casein kinase I isoform gamma-1 (Homo sapiens) (UniProt Q9HCP0); conditions: at 10 µM
Sequence (Q9HCP0 whole entry, looked up, canonical isoform): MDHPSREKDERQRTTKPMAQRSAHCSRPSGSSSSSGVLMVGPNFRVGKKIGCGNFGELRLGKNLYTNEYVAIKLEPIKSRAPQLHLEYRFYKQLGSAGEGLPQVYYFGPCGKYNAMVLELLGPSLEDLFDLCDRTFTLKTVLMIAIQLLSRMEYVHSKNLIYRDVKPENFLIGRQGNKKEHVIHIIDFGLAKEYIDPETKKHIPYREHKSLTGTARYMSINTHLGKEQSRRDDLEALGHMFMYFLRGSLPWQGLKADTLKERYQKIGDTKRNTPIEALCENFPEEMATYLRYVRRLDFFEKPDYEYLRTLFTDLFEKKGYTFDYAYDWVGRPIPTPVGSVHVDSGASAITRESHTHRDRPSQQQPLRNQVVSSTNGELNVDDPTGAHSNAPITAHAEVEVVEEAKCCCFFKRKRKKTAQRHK
Description: Millipore: Percentage of residual kinase activity of CSNK1G1 at 10uM relative to control. Control inhibitor: Phosphoric acid* at 0.3uM. Buffer: 8 mM MOPS pH 7.0, 0.2 mM EDTA
metric: residual activity (%)
Express the result in % but write the number alone.

# input compound: Nc1nccc(-c2c(-c3ccc(F)cc3)ncn2C2CCNCC2)n1 ; wanted: its residual activity
21

Item under review: O=c1cc(N2CCOCC2)oc2c1ccc1ccccc12 . Reported residual activity?
94

What does the record list as residual activity for CCOC(=O)c1c(C)[nH]c(/C=C2\C(=O)Nc3ccccc32)c1C ?
81

# query: residual activity of entry Oc1cccc(-c2nc(N3CCOCC3)c3oc4ncccc4c3n2)c1
98

Reported residual activity, compound NC(=O)c1ccc(-c2nc(-c3ccc4c(c3)OCCO4)c(-c3ccccn3)[nH]2)cc1 : ____
83

I'd like to know its residual activity. The compound in question is COc1ccc2c(c1)c(C1=C(c3c[nH]c4ccccc34)C(=O)NC1=O)cn2CCCN(C)C
96

So what does the record say about residual activity for Nc1n[nH]c2nc3ccccc3nc12 ?
69

# lookup: residual activity of Nc1ncnc2c1cnn2-c1ccccc1
99

Query (compound): CSc1nc(-c2ccc(F)cc2)c(-c2ccnc(NC(C)c3ccccc3)c2)[nH]1 (stereo not drawn) ; field requested: residual activity
11

Need residual activity of CCCCc1c(-c2ccc(O)cc2)[nH]c2nccnc12 , thanks.
61

Give its residual activity value. Item: COc1ccc(-c2cnc3c(-c4ccsc4)cnn3c2)cc1
92

Which residual activity value belongs to CCN(CC)CCNC(=O)c1c(C)[nH]c(/C=C2\C(=O)Nc3ccc(Cl)cc32)c1C ?
14

Look at this compound and give its reported residual activity. CN([C@@H](Cc1ccc(OS(=O)(=O)c2cccc3cnccc23)cc1)C(=O)N1CCN(c2ccccc2)CC1)S(=O)(=O)c1cccc2cnccc12
73

Give its residual activity value. Item: Nc1ncnc2c1c(-c1ccc(Oc3ccccc3)cc1)cn2C1CCCC1
73

residual activity lookup needed for NC(=O)Nc1sc(-c2ccc(F)cc2)cc1C(N)=O , thanks.
71

Which residual activity is reported for this compound? O=c1cc(N2CCNCC2)oc2c(-c3ccccc3)cccc12
97

# query: residual activity of entry O=C(Nc1nc2ccccc2n1CCN1CCOCC1)c1cccc([N+](=O)[O-])c1
67

Fill in the blank: the reported residual activity of CCN1/C(=C/C(C)=O)Sc2ccc(OC)cc21 is ____.
21

Would you kindly share the measured residual activity for COc1ccc(Cl)cc1NC(=O)Nc1cc(C)nc2ccccc12 ?
100

Tell me the measured residual activity of CCCC(=O)Oc1ccc2[nH]c(C(=O)c3cc4ccccc4[nH]3)cc2c1 , please.
92

For the compound shown here, O=c1c(-c2ccc(F)cc2)c(-c2ccncc2)[nH]n1-c1ccc(Cl)cc1 , give the reported residual activity.
62

Entry COc1cc2nccc(Oc3ccc(NC(=S)NC(=O)c4ccccc4C)cc3)c2cc1OC has what residual activity?
63

Bench note: what residual activity did O=C1NC(=O)C(c2cn(CCCO)c3ncccc23)=C1c1cnccn1 show?
90

---

molecular target: Mitogen-activated protein kinase 1 (Homo sapiens) (UniProt P28482); settings: at 10 µM
Sequence (P28482 whole entry): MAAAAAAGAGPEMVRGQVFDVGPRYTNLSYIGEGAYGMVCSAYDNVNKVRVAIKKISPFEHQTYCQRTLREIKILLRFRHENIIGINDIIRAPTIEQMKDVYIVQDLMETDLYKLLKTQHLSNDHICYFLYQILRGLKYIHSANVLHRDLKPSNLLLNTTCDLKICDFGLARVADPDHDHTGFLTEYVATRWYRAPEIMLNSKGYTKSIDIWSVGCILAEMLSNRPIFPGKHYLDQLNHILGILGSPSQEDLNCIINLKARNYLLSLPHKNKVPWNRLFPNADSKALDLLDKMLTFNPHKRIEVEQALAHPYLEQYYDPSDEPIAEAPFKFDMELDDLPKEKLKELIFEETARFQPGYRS
Description: Millipore: Percentage of residual kinase activity of MAPK1 at 10uM relative to control. Control inhibitor: ERK Inhibitor II at 30.0uM. Buffer: 25 mM Tris pH 7.5, 0.02 mM EGTA
metric: residual activity
Be sure to follow the number with its unit.

Would you kindly share the measured residual activity for COc1cc2c(cc1OC)-c1n[nH]c(Nc3cccc(F)c3)c1C2 ?
103%

Requested read-out: residual activity. Entry: N#Cc1c(NC(=O)c2cccc3ccccc23)sc2c1CCCC2
92%

If you can, please state the reported residual activity value of Cc1cc(C)c(/C=C2\C(=O)Nc3ccccc32)[nH]1 .
101%

Could you tell me which residual activity is on file for NCCNc1ncc(C(N)=O)c(Nc2cccc(C(F)(F)F)c2)n1 ?
43%

I am curious: what residual activity value has been reported for Cn1sc(=O)n(Cc2ccccc2)c1=O ?
92%

# input molecule: Nc1ncnc2c1c(-c1ccc(Oc3ccccc3)cc1)cn2C1CCCC1 ; wanted: its residual activity
93%

Fill in the blank: the reported residual activity of CC(C)(C)n1nc(Cc2cccc3ccccc23)c2c(N)ncnc21 is ____.
41%

// returns reported residual activity for input O=C1NC(=O)C(c2cn(CCCn3ccnc3)c3ccccc23)=C1Nc1ccccc1
110%

Report residual activity for COc1cc2nccc(Oc3ccc(NC(=O)Nc4cc(C)on4)c(Cl)c3)c2cc1OC please.
104%

Need residual activity of O=C(CCCc1ccc(-c2ccccc2F)cc1)Nc1ccc(O)cc1 , thanks.
92%

Requested read-out: residual activity. Entry: CC(C)c1nn(-c2c(Cl)cccc2Cl)c2nc(Cc3ccc(OCCO)cc3)[nH]c(=O)c12
89%

Which residual activity value belongs to O=S(=O)(c1cccc2cnccc12)N1CCCNCC1 ?
80%

GET /values?readout=residual activity&item= Nc1ncnc2c1cnn2-c1ccccc1
95%

Entry under review: Oc1cccc(-c2nc(N3CCOCC3)c3oc4ncccc4c3n2)c1 . Reported residual activity?
119%

Consider the molecule CC(C)[C@H](CO)Nc1nc(Nc2cc(N)cc(Cl)c2)c2ncn(C(C)C)c2n1 and give its measured residual activity.
66%

---

molecular target: Dual specificity mitogen-activated protein kinase kinase 1 (Homo sapiens); conditions: at 1 µM
Description: Millipore: Percentage of residual kinase activity of MAP2K1 at 1uM relative to control. Control inhibitor: Phosphoric acid* at 0.3uM. Buffer: 50 mM Tris pH 7.5, 0.2 mM EGTA, 0.1% ?-mercaptoethanol, 0.01% Brij-35
Param label: returns Fulfilled when residual activity < 80%, returns Not fulfilled otherwise, including exact equality.

hey, is residual activity for CCCC(=O)Oc1ccc2[nH]c(C(=O)c3cc4ccccc4[nH]3)cc2c1 lower than 80% or not?
Not fulfilled

Please state whether residual activity is below 80% for O=C(CCCc1ccc(-c2ccccc2F)cc1)Nc1ccc(O)cc1
Not fulfilled

Field: below-cutoff. Rule: recorded residual activity strictly less than 80%. Subject: COc1cc2nccc(Oc3ccc(NC(=O)Nc4cc(C)on4)c(Cl)c3)c2cc1OC
Fulfilled

Hi there! Is residual activity for Nc1n[nH]c2nc3ccccc3nc12 below 80%, do you know?
Not fulfilled

Say whether its residual activity is strictly beneath 80%. Entry: O=c1cc(N2CCNCC2)oc2c(-c3ccccc3)cccc12
Not fulfilled

Identify whether the compound NCCNc1ncc(C(N)=O)c(Nc2cccc(C(F)(F)F)c2)n1 records residual activity below 80%.
Fulfilled

Please determine if Nc1ncnc2[nH]nc(Nc3ccc(F)cc3)c12 is below 80% in terms of residual activity.
Fulfilled

# strict comparison: is reported residual activity < 80%? input = O=C1NC(=O)C(c2c[nH]c3ccccc23)=C1c1c[nH]c2ccccc12
Fulfilled

Given CCN(CC)CCNC(=O)c1c(C)[nH]c(/C=C2\C(=O)Nc3ccc(Cl)cc32)c1C , is recorded residual activity strictly lower than 80%?
Fulfilled

hey, is residual activity for O=C1Cc2c([nH]c3ccc([N+](=O)[O-])cc23)-c2ccccc2N1 lower than 80% or not?
Not fulfilled

Record O=C(Nc1nc2ccccc2n1CCN1CCOCC1)c1cccc([N+](=O)[O-])c1 : is its residual activity strictly below 80%?
Fulfilled

# strict comparison: is reported residual activity < 80%? input = Cn1sc(=O)n(Cc2ccccc2)c1=O
Not fulfilled

Problem: For the compound Cc1cc(C)c(/C=C2\C(=O)Nc3ccccc32)[nH]1 , is residual activity under 80%?
Fulfilled

Bench note: check whether COc1ccc(Cl)cc1NC(=O)Nc1cc(C)nc2ccccc12 shows residual activity below 80%
Fulfilled

I'd appreciate it if you could check whether NC(=O)Nc1sc(-c2ccc(F)cc2)cc1C(N)=O has residual activity smaller than 80%.
Fulfilled

In plain terms, does COc1ccc2c(c1)c(C1=C(c3c[nH]c4ccccc34)C(=O)NC1=O)cn2CCCN(C)C come in under 80% for residual activity?
Not fulfilled

Below 80% on residual activity? Entry COc1cc2nccc(Oc3ccc(NC(=S)NC(=O)c4ccccc4C)cc3)c2cc1OC
Not fulfilled

---

molecular target: CDK9/cyclin T1 (Homo sapiens) (UniProt O60563+P50750); conditions: at 1 µM
Provide the recorded residual activity for the entries that follow.
State just the number; it will be interpreted in %.

Look at this compound and give its reported residual activity. O=C1Nc2ccccc2/C1=C\c1c(Cl)[nH]c2ccccc12
80

Data request, read-out residual activity, for O=c1c(-c2ccc(F)cc2)c(-c2ccncc2)[nH]n1-c1ccc(Cl)cc1
100

If you can, please state the reported residual activity value of Cc1cc(C)c(/C=C2\C(=O)Nc3ccccc32)[nH]1 .
100

# input compound: O=C(CCCc1ccc(-c2ccccc2F)cc1)Nc1ccc(O)cc1 ; wanted: its residual activity
104

Find the recorded residual activity belonging to N#C/C(=C1/Nc2ccccc2S1)c1ccnc(NCCc2cccnc2)n1 and report it.
8

I'd like to know its residual activity. The compound in question is CCCCc1c(-c2ccc(O)cc2)[nH]c2nccnc12
7

Reported residual activity for CCCC(=O)Oc1ccc2[nH]c(C(=O)c3cc4ccccc4[nH]3)cc2c1 : what is it?
108

Looking for the measured residual activity of Nc1ncnc2c1cnn2-c1ccccc1 , can you help?
102

State the recorded residual activity for this entry: O=c1cc(N2CCOCC2)oc2c1ccc1ccccc12
95

// residual activity lookup, key: Nc1nc(Nc2ccc(S(N)(=O)=O)cc2)nn1C(=O)c1c(F)cccc1F
0

Please look up its residual activity: O=C(c1ccccc1)c1ccc(N2CCOCC2)cc1O
89

What does the data say about its residual activity? Entry: O=C(NC(NC(=S)Nc1ccc(F)c([N+](=O)[O-])c1)C(Cl)(Cl)Cl)C(c1ccccc1)c1ccccc1 (centres undefined)
101

Looking for the measured residual activity of COc1ccc2c(c1)c(C1=C(c3c[nH]c4ccccc34)C(=O)NC1=O)cn2CCCN(C)C , can you help?
29

Using the record for N#Cc1c(NC(=O)c2cccc3ccccc23)sc2c1CCCC2 , report its residual activity.
99
